TARGET_DESC: Glycogen synthase kinase-3 beta (Homo sapiens, UniProt P49841)
PROCEDURE_TEXT: Inhibition of recombinant human GSK-3beta at 50 uM using phosphorylated polypeptide as substrate incubated for 30 mins in presence of ATP by kinase-glo luminescence assay relative to control
Sequence (P49841 whole entry, looked up): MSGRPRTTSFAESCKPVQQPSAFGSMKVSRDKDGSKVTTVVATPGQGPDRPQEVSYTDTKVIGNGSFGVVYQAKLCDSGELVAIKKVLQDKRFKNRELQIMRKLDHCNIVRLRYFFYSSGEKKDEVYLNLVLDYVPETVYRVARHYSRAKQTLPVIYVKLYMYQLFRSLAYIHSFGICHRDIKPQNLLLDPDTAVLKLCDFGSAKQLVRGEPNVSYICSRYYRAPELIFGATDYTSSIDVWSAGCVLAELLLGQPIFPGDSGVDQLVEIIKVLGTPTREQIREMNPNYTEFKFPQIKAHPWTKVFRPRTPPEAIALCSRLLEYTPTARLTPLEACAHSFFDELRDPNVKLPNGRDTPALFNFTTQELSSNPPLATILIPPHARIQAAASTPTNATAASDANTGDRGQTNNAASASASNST
METRIC: inhibition (%)

query_smiles=COc1ccc(C(=O)N2C[C@@H](F)[C@@H](OCc3nc4cc(C(F)(F)F)ccc4[nH]3)C2)cc1 metric=inhibition value_observed=33
query_smiles=Cn1cccc1C(=O)N1C[C@H](NC(=O)Nc2ccc(F)cc2F)C[C@@H]1C(=O)N[C@H](Cc1c[nH]c2ccccc12)C(N)=O metric=inhibition value_observed=6

[1] O=C(c1ccccc1)N1C[C@@H](F)[C@@H](OCc2nc3cc(C(F)(F)F)ccc3[nH]2)C1
[2] Cc1nn(-c2ccccc2[N+](=O)[O-])c(C)c1[C@@H]1C=C[C@@H](NC(=O)Nc2cccc(C#N)c2)C1
[3] COC(=O)c1ccc2c(c1)nc1n2[C@@H](CNC(=O)Nc2ccccc2)COC1
[4] O=C(c1cccnc1)N1C[C@@H](F)[C@@H](OCc2nc3cc(C(F)(F)F)ccc3[nH]2)C1
Inquiry: Your job: order these 4 records by inhibition, ascending. // rank by listing labels in the order requested
Reply text: 3, 1, 4, 2

----------
TARGET_DESC: Glycogen synthase kinase-3 beta (Homo sapiens)
PROCEDURE_TEXT: Inhibition of recombinant human GSK-3beta using phosphorylated polypeptide as substrate incubated for 30 mins in presence of ATP by kinase-glo luminescence assay
Sequence (P49841 whole entry): as the sequence (P49841 whole entry, looked up) above
pIC50: −log10 of the molar value.
METRIC: pIC50

molecule=O=C(Nc1cccc(C(F)(F)F)c1)N[C@H]1CO[C@H]2[C@@H]1OC[C@@H]2n1nnnc1-c1cccc(CN2CCCC2)c1 value_observed="< 4.30"
molecule=Cn1c(CO[C@H]2CN(Cc3c[nH]c4ccccc34)C[C@H]2F)nc2ccccc21 value_observed="< 4.30"

Inquiry: Given the molecule `COc1ccc(-c2ccnc(N[C@H]3CO[C@H]4[C@@H]3OC[C@@H]4NC(=O)Nc3cc(OC)cc(OC)c3)n2)cc1` , what is its reported pIC50?
Reply text: 6.38

Inquiry: Likewise for `N#Cc1ccc(CN2C[C@@H](F)[C@@H](OCc3nc4cc(C(F)(F)F)ccc4[nH]3)C2)cc1` ?
Reply text: < 4.30

Inquiry: Likewise for `O=C(Nc1cccc(C(F)(F)F)c1)N[C@H]1CO[C@H]2[C@@H]1OC[C@@H]2OC(=O)Nc1ccc(Oc2ccccc2)cc1` ?
Reply text: < 4.30

Inquiry: Likewise for `O=C(Nc1ccccc1)N[C@H]1CO[C@H]2[C@@H]1OC[C@@H]2Nc1nccc(-c2cccs2)n1` ?
Reply text: 5.57

Inquiry: Likewise for `COC(=O)c1ccc2c(c1)nc1n2[C@@H](CNC(=O)Nc2ccccc2)COC1` ?
Reply text: < 4.30

Inquiry: Likewise for `O=C(c1ccncc1)N1C[C@@H](F)[C@@H](OCc2nc3ccc(F)cc3[nH]2)C1` ?
Reply text: < 4.30

Inquiry: Likewise for `CCNC(=O)N[C@H]1CO[C@H]2[C@@H]1OC[C@@H]2Nc1nccc(-c2ccc(OC)cc2)n1` ?
Reply text: 6.93

Inquiry: Likewise for `COC(=O)c1cccc(NC(=S)N[C@H]2CO[C@H]3[C@@H]2OC[C@H]3OC(=O)Nc2cccc(C(F)(F)F)c2)c1` ?
Reply text: < 4.30

Inquiry: Likewise for `COc1ccccc1-c1ccnc(N[C@H]2CO[C@H]3[C@@H]2OC[C@@H]3NC(=O)Nc2cccc(C#N)c2)n1` ?
Reply text: 5.22

Inquiry: Likewise for `O=C(c1ccccc1)N1C[C@@H](F)[C@@H](OCc2nc3cc(C(F)(F)F)ccc3[nH]2)C1` ?
Reply text: < 4.30

Inquiry: Likewise for `COc1ccc(-c2ccnc(N[C@H]3CO[C@H]4[C@@H]3OC[C@@H]4NC(=O)Nc3cccc(C(F)(F)F)c3)n2)cc1` ?
Reply text: 5.01

Inquiry: Likewise for CSc1cccc(NC(=O)NC2C[C@@H]3CCCN2CC3CN(C)c2ccccc2)c1 (stereo partly specified) ?
Reply text: < 4.30

Inquiry: Likewise for `O=C(Nc1cccc(C(F)(F)F)c1)N[C@H]1CO[C@H]2[C@@H]1OC[C@@H]2Nc1nccc(C2CCCC2)n1` ?
Reply text: 4.92

Inquiry: Likewise for `CSCC(=O)N1C[C@@H](NC(=O)Nc2cccc(SC)c2)C[C@H]1C(=O)N[C@H](Cc1c[nH]c2ccccc12)C(N)=O` ?
Reply text: < 4.30

----------
Item-by-item account of pIC50
TARGET_DESC: Glycogen synthase kinase-3 beta (Homo sapiens)
PROCEDURE_TEXT: Inhibition of recombinant human GSK-3beta using phosphorylated polypeptide as substrate incubated for 30 mins in presence of ATP by kinase-glo luminescence assay
pIC50: −log10 of the molar value.

query_smiles=O=C(Nc1cccc2ccccc12)N[C@H]1CO[C@H]2[C@@H]1OC[C@H]2OC(=O)Nc1ccccc1 metric=pIC50 value_observed="< 4.30"
query_smiles=COc1ccc2nc(CO[C@H]3CN(Cc4ccnc5ccccc45)C[C@H]3F)[nH]c2c1 metric=pIC50 value_observed="< 4.30"
query_smiles=CC(=O)Nc1ccc(CN2C[C@@H](F)[C@@H](OCc3nc4cc(C)c(C)cc4[nH]3)C2)cc1 metric=pIC50 value_observed="< 4.30"

Inquiry: Given the compound `O=C(Nc1cccc(C(F)(F)F)c1)O[C@@H]1CO[C@H]2[C@@H]1OC[C@@H]2Nc1nccc(-c2ccc3c(c2)OCO3)n1` , what is its reported pIC50?
Reply text: 5.97

----------
TARGET_DESC: Glycogen synthase kinase-3 beta (Homo sapiens)
PROCEDURE_TEXT: Inhibition of recombinant human GSK-3beta at 50 uM using phosphorylated polypeptide as substrate incubated for 30 mins in presence of ATP by kinase-glo luminescence assay relative to control
METRIC: inhibition (%)

Some solved cases for reference:
compound=O=C(Nc1cccc(C(F)(F)F)c1)O[C@@H]1CO[C@H]2[C@@H]1OC[C@@H]2NC(=S)Nc1ccc(Cl)cc1 target_desc="Glycogen synthase kinase-3 beta (Homo sapiens)" value_observed=41
compound=Cc1cc2nc(CO[C@H]3CN(Cc4cccnc4)C[C@H]3F)[nH]c2cc1C target_desc="Glycogen synthase kinase-3 beta (Homo sapiens)" value_observed=5
compound=CS(=O)(=O)c1ccc(CN2C[C@@H](F)[C@@H](OCc3nc4cc(C(F)(F)F)ccc4[nH]3)C2)cc1 target_desc="Glycogen synthase kinase-3 beta (Homo sapiens)" value_observed=19
compound=O=C(Nc1cccc2ccccc12)N[C@H]1CO[C@H]2[C@@H]1OC[C@H]2OC(=O)Nc1ccccc1 target_desc="Glycogen synthase kinase-3 beta (Homo sapiens)" value_observed=21

[A] CC(=O)Nc1ccc(CN2C[C@@H](F)[C@@H](OCc3nc4cc(C)c(C)cc4[nH]3)C2)cc1
[B] O=C(Nc1cccc(C(F)(F)F)c1)N[C@H]1CO[C@H]2[C@@H]1OC[C@@H]2OC(=O)Nc1ccc(Oc2ccccc2)cc1
[C] COc1ccc2nc(CO[C@H]3CN(Cc4ccnc5ccccc45)C[C@H]3F)[nH]c2c1
[D] O=C(c1ccncc1)N1C[C@@H](F)[C@@H](OCc2nc3ccc(F)cc3[nH]2)C1
Inquiry: Ranking field: inhibition; order: falling. // rank by listing labels in the order requested
Reply text: B, D, C, A
(B: 42%, D: 19%, C: 13%, A: 2%)

[A] CC(C)=CC(=O)N1CC(NC(=O)Nc2ccc(F)cc2F)CC1C(=O)N[C@H](Cc1c[nH]c2ccccc12)C(N)=O (stereo partly specified)
[B] Cn1c(CO[C@H]2CN(Cc3c[nH]c4ccccc34)C[C@H]2F)nc2ccccc21
[C] O=C(Nc1cccc(C(F)(F)F)c1)N[C@H]1CO[C@H]2[C@@H]1OC[C@H]2OC(=O)Nc1cccc2ccccc12
[D] CSc1cccc(NC(=O)NC2C[C@@H]3CCCN2CC3CN(C)c2ccccc2)c1 (stereo partly specified)
[E] N#Cc1ccc(CN2C[C@@H](F)[C@@H](OCc3nc4cc(C(F)(F)F)ccc4[nH]3)C2)cc1
Inquiry: Your job: order these 5 records by inhibition, ascending. // rank by listing labels in the order requested
Reply text: D, E, A, B, C

[P] O=C(Nc1cccc(C(F)(F)F)c1)N[C@H]1CO[C@H]2[C@@H]1OC[C@@H]2n1nnnc1-c1cccc(CN2CCCC2)c1
[Q] COC(=O)c1cccc(NC(=S)N[C@H]2CO[C@H]3[C@@H]2OC[C@H]3OC(=O)Nc2cccc(C(F)(F)F)c2)c1
Inquiry: When P and Q are compared, which has the higher number for inhibition? Return value: the label identifying the chosen record.
Reply text: Q
